Numbers sourced from patent US8404647B2.

target system: PAD4 (Homo sapiens, UniProt Q9UM07)
Sequence (Q9UM07 whole entry): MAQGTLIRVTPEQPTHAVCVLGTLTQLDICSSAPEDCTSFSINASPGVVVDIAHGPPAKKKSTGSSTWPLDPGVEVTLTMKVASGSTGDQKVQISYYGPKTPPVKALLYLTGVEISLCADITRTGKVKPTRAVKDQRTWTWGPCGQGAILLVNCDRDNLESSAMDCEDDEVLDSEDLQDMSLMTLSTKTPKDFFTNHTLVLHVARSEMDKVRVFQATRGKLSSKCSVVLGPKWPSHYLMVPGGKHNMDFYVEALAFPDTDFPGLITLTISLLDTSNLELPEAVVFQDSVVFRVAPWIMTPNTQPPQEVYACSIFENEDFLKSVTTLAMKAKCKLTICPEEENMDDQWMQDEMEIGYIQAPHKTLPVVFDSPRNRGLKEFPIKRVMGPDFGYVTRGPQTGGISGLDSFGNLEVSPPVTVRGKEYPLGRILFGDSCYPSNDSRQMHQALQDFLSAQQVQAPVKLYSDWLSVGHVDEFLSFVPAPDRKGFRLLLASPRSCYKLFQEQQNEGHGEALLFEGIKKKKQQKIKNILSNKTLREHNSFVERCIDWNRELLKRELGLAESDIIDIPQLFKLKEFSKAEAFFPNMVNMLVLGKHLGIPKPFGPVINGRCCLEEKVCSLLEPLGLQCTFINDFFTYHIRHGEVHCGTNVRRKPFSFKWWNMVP
method: Conversion (R to Cit) of substrate peptides by PAD4, mass spectrometry
Format: biochemical
test context: Table 10
Ends that are not written are not given here.
property measured: Conversion by PAD4 (%)

Examples from the recorded data:
substance: D-S-K-H-K-S-R-D-F-V-Y-S-D (DSKHKSRDFVYSD; not fully specified (C-terminus); printed as D-S-K-H-K-S-R-D-F-V-Y-S-D) [Peptide 0608-27]
property measured: Conversion by PAD4 (%)
reported result: 69
//
substance: D-S-K-W-Y-H-R-N-K-F-W-S-D (DSKWYHRNKFWSD) [Peptide 0735-27]
property measured: Conversion by PAD4 (%)
reported result: 45
//
substance: F-F-D-S-H-K-K-S-R-E-Y-V-F-S-D (FFDSHKKSREYVFSD) [Peptide 0612-44]
property measured: Conversion by PAD4 (%)
reported result: 58

(a) F-F-D-S-K-H-F-D-R-E-W-I-W-S-D (FFDSKHFDREWIWSD) [Peptide 0612-30]
(b) D-S-K-H-L-S-R-E-W-M-W-S-D (DSKHLSREWMWSD; not fully specified (C-terminus); printed as D-S-K-H-L-S-R-E-W-M-W-S-D) [Peptide 0608-24]
(c) D-S-K-K-F-K-R-D-F-L-F-S-D (DSKKFKRDFLFSD; not fully specified (C-terminus); printed as D-S-K-K-F-K-R-D-F-L-F-S-D) [Peptide 0708-26]
hey, can you rank those substances up there by Conversion by PAD4 (%)? biggest number first please A complete answer lists every label in the requested sequence.
a, b, c
(a: 89%, b: 54%, c: 35%)

* * *

target system: PAD2 (Homo sapiens, UniProt Q9Y2J8)
Sequence (Q9Y2J8 whole entry): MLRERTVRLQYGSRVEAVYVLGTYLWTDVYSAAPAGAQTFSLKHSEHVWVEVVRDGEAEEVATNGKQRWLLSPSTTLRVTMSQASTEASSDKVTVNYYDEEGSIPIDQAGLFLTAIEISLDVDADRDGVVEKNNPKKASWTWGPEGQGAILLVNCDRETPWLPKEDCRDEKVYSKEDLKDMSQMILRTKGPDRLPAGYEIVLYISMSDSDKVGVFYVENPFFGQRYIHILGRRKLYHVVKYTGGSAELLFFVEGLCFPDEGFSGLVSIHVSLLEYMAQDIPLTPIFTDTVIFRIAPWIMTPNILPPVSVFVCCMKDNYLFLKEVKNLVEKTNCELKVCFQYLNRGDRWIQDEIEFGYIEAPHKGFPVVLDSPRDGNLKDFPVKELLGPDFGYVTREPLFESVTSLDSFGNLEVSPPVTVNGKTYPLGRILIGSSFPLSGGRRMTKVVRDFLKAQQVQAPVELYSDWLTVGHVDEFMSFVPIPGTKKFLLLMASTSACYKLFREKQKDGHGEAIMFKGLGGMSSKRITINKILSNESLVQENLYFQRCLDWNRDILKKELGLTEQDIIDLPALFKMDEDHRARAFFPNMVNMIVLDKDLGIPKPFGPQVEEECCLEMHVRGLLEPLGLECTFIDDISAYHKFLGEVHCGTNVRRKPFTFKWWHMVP
method: Conversion (R to Cit) of substrate peptides by PAD2, mass spectrometry
Assay type: biochemical
test context: Table 10
Ends that are not written are not given here.
property measured: Conversion by PAD2 (%)

substance: F-F-D-S-H-K-H-S-R-E-W-L-W-S-D (FFDSHKHSREWLWSD) [Peptide 0612-38]
target system: PAD2 (Homo sapiens, UniProt Q9Y2J8)
readout units: %
Conversion by PAD2 (%): 96
--
substance: D-S-K-W-Y-H-R-N-K-F-W-S-D (DSKWYHRNKFWSD) [Peptide 0735-27]
target system: PAD2 (Homo sapiens, UniProt Q9Y2J8)
readout units: %
Conversion by PAD2 (%): 98
--
substance: F-F-D-S-K-K-F-S-R-D-H-I-E-S-D (FFDSKKFSRDHIESD) [Peptide 0612-35]
target system: PAD2 (Homo sapiens, UniProt Q9Y2J8)
readout units: %
Conversion by PAD2 (%): 90
--
substance: D-S-K-H-K-S-R-D-F-V-Y-S-D (DSKHKSRDFVYSD; not fully specified (C-terminus); printed as D-S-K-H-K-S-R-D-F-V-Y-S-D) [Peptide 0608-27]
target system: PAD2 (Homo sapiens, UniProt Q9Y2J8)
readout units: %
Conversion by PAD2 (%): 94
--
substance: D-S-K-W-H-H-R-D-H-L-Y-S-D (DSKWHHRDHLYSD; not fully specified (C-terminus); printed as D-S-K-W-H-H-R-D-H-L-Y-S-D) [Peptide 0708-18]
target system: PAD2 (Homo sapiens, UniProt Q9Y2J8)
readout units: %
Conversion by PAD2 (%): 90
--
substance: D-S-K-K-H-F-R-D-K-L-Y-S-D (DSKKHFRDKLYSD; not fully specified (C-terminus); printed as D-S-K-K-H-F-R-D-K-L-Y-S-D) [Peptide 0708-22]
target system: PAD2 (Homo sapiens, UniProt Q9Y2J8)
readout units: %
Conversion by PAD2 (%): 92
--
substance: F-F-D-S-K-K-K-H-R-E-W-V-W-S-D (FFDSKKKHREWVWSD) [Peptide 0612-34]
target system: PAD2 (Homo sapiens, UniProt Q9Y2J8)
readout units: %
Conversion by PAD2 (%): 99

* * *

target system: PAD2 (Homo sapiens)
method: Conversion (R to Cit) of substrate peptides by PAD2, mass spectrometry
Type: biochemical
test context: Table 9, PAD2
Ends that are not written are not given here.
property measured: Conversion (%)

substance: D-S-K-F-H-F-R-Y-A-V-A-S-D (DSKFHFRYAVASD; not fully specified (C-terminus); printed as D-S-K-F-H-F-R-Y-A-V-A-S-D) [Peptide 0735-35]
Conversion (%): 92

substance: D-S-K-F-A-F-R-G-G-I-A-S-D (DSKFAFRGGIASD; not fully specified (C-terminus); printed as D-S-K-F-A-F-R-G-G-I-A-S-D) [Peptide 0735-41]
Conversion (%): 90

* * *

target system: PAD4 (Homo sapiens)
method: Conversion (R to Cit) of substrate peptides by PAD4, mass spectrometry
Assay type: biochemical
test context: Table 10
Ends that are not written are not given here.
Attribute: Conversion by PAD4 (%)

Examples from the recorded data:
substance: D-S-K-K-H-D-R-D-F-L-Y-S-D (DSKKHDRDFLYSD; not fully specified (C-terminus); printed as D-S-K-K-H-D-R-D-F-L-Y-S-D) [Peptide 0608-31]
Conversion by PAD4 (%): 58(=L2) %
--
substance: D-S-K-F-H-F-R-Y-A-V-A-S-D (DSKFHFRYAVASD; not fully specified (C-terminus); printed as D-S-K-F-H-F-R-Y-A-V-A-S-D) [Peptide 0735-35]
Conversion by PAD4 (%): <20%

Value wanted: Conversion by PAD4 (%) (PAD4 (Homo sapiens)) of entry D-S-Q-W-A-F-R-H-A-L-F-S-D (DSQWAFRHALFSD) [Peptide 0735-37]
<20%

* * *

target system: PAD2 (Homo sapiens)
method: Conversion (R to Cit) of substrate peptides by PAD2, mass spectrometry
Type: biochemical
test context: Table 10
Marks after values point to notes of the source that are not given here.
Attribute: Conversion by PAD2 (%)

Examples from the recorded data:
substance: F-F-D-S-H-K-W-H-R-D-F-F-Y-S-D (FFDSHKWHRDFFYSD) [Peptide 0612-37]
Conversion by PAD2 (%): 96 ** %

substance: F-F-D-S-H-K-L-H-R-E-W-M-W-S-D (FFDSHKLHREWMWSD) [Peptide 0612-46]
Conversion by PAD2 (%): 92 ** %

I would be grateful if you could share the reported Conversion by PAD2 (%) for F-F-D-S-H-K-F-D-R-D-F-I-Y-S-D (FFDSHKFDRDFIYSD) [Peptide 0612-45] .
97 ** %

* * *

target system: PAD4 (Homo sapiens)
method: Conversion (R to Cit) of substrate peptides by PAD4, mass spectrometry
Assay type: biochemical
test context: Table 4, 13-mer peptides, PAD4
Ends that are not written are not given here.
property measured: Conversion (%)

substance: D-S-K-H-K-D-R-E-Y-V-F-S-D (DSKHKDREYVFSD; not fully specified (C-terminus); printed as D-S-K-H-K-D-R-E-Y-V-F-S-D) [Peptide 0608-22]
reported result: 90
//
substance: D-S-H-H-F-H-R-E-Y-I-F-S-D (DSHHFHREYIFSD; not fully specified (C-terminus); printed as D-S-H-H-F-H-R-E-Y-I-F-S-D) [Peptide 0608-38]
reported result: 90
//
substance: D-S-H-H-L-S-R-D-F-M-Y-S-D (DSHHLSRDFMYSD; not fully specified (C-terminus); printed as D-S-H-H-L-S-R-D-F-M-Y-S-D) [Peptide 0608-39]
reported result: 95
//
substance: D-S-H-K-L-H-R-E-W-M-W-S-D (DSHKLHREWMWSD; not fully specified (C-terminus); printed as D-S-H-K-L-H-R-E-W-M-W-S-D) [Peptide 0608-44]
reported result: 95

* * *

target system: PAD4 (Homo sapiens, UniProt Q9UM07)
method: Conversion (R to Cit) of substrate peptides by PAD4, mass spectrometry
Format: biochemical
test context: Table 10
Ends that are not written are not given here.
property measured: Conversion by PAD4 (%)

substance: D-S-H-K-F-D-R-D-F-I-Y-S-D (DSHKFDRDFIYSD; not fully specified (C-terminus); printed as D-S-H-K-F-D-R-D-F-I-Y-S-D) [Peptide 0608-43]
Conversion by PAD4 (%): 79

substance: F-F-D-S-H-K-F-D-R-D-F-I-Y-S-D (FFDSHKFDRDFIYSD) [Peptide 0612-45]
Conversion by PAD4 (%): 94

substance: F-F-D-S-K-K-W-S-R-E-Y-F-F-S-D (FFDSKKWSREYFFSD) [Peptide 0612-32]
Conversion by PAD4 (%): 76

substance: F-F-D-S-H-K-L-H-R-E-W-M-W-S-D (FFDSHKLHREWMWSD) [Peptide 0612-46]
Conversion by PAD4 (%): 91

substance: D-S-K-K-H-D-R-D-H-L-W-S-D (DSKKHDRDHLWSD; not fully specified (C-terminus); printed as D-S-K-K-H-D-R-D-H-L-W-S-D) [Peptide 0708-20]
Conversion by PAD4 (%): 80

substance: D-S-K-K-F-D-R-G-H-L-Y-S-D (DSKKFDRGHLYSD; not fully specified (C-terminus); printed as D-S-K-K-F-D-R-G-H-L-Y-S-D) [Peptide 0708-30]
Conversion by PAD4 (%): 80
